Value source: the supplement of paper PMC9170038

Tested on: MS2 coat protein
Assay: apparent KD of MS2 coat protein, switch ON state; designed switch direction (-1 OFF switch, 1 ON switch): 1; higher = weaker reporter binding
Conditions: FMN input: 0 or 200 uM; Eterna round: R93 (includes R88 designs)
# label = bin(measured apparent KD of MS2 coat protein), where bins are low group (below 20 nM), middle group (20 nM to below 40 nM), high group (40 nM or more)

INSERT INTO assay_data (seq_string, class_assignment) VALUES
  ('AGGAGACAUGAGGAUCACCCAUGUGAGAAGAGGCGAGGAUAUCGAAAAAAAGAAAGAAAACGAGAAGGCGCGAGAA [salish99-SS1-015]', 'middle group'),
  ('UGAAAGGAGAGAGAGGAUAUCCAAAGGAAAACAUGAGGAUCACCCAUGUAGAAGGUAGGAAAUUGGGAGAAGGCUCAAGAAAGAG [salish99-ss2-139]', 'high group'),
  ('GAAAAACAUGAGGAUCACCCAUGUAGAAAUAUGGAAGGAUAUACAAAGACGAAAGUCAAAGUAGAAGGUCUAAAAG [Mat - Same State 1 - Eli mod - D13]', 'low group'),
  ('AAUAUACAUGAGGAUCACCCAUGUUAGGUGGGACUAGGAUAUCAAAAUACAUAAUGAACAUGAGAAGGAGUAUCAA [JR_SS001_Sub403]', 'high group'),
  ('AACAAUCUAUCUGAGGAUAUCAUUUCAAAGACAUGAGGAUCACCCAUGUCCAGGAAAACUGGAAAUGAGAAGGCAGAUAGAUUGA [SS2: 1106]', 'low group'),
  ('AAAUAACAUGAGGAUCACCCAUGUUGCAGCGGUUGAGGAUAUGUGGGUGAAAAUAGCAUGGCAGAAGGCGAGUGUA [SameState1 Malc#26]', 'high group'),
  ('UAGGGAACAGGGUAGGAUAUGCAUGGUCGUACAUGAGGAUCACCCAUGUAGCCUAGAAAAUAAAUGCAGAAGGACCAAAAGAAAA [Ononmaesra]', 'low group'),
  ('AGAAGACAUGAGGAUCACCCAUGUGGGAAUAUGGGAGGAUAUACAAAGACGAGAGUCAGAGUAGAAGGCCUAGGCA [salish99-ss1-111]', 'high group'),
  ('AACAUACAUGAGGAUCACCCAUGUUCCGGCAGGUCAGGAUAUGUAUCGAAAGAGUUAUAAACAGAAGGGACAUAAA [JR_SS001_Sub010]', 'middle group'),
  ('AAAAAACAUGAGGAUCACCCAUGUGCAAAAUUCGCAGGAUAUUUUUCUUUUAAAUGAGAGGGAGAAGGGUGUAAAA [Nob''s Hobby 23 - Jieux - Same State 1]', 'middle group'),
  ('AGGAGACAUGAGGAUCACCCAUGUGAGAAGAGGCGAGGAUAUCGAAAGAAAGAAGAGAAACGAGAAGGCGCGAGCG [salish99-SS1-028]', 'middle group'),
  ('GAAAAACAUGAGGAUCACCCAUGUGAAAACUUGGGAGGAUAUACUAAGACGAAAGUCGAAGUAGAAGGCCUAAAAG [Same State 1.4j (Mat - Mod of Eli - )]', 'low group'),
  ('UAGAGGAAGAGAGAGGAUAUCCAAAGGAAAACAUGAGGAUCACCCAUGUAAAAGGUAGGAAAUUGGGAGAAGGCUCAAGAGAGAG [salish99-ss2-062]', 'middle group'),
  ('CUUAGACAUGAGGAUCACCCAUGUCGAACAAACAAAGGAUAUGGGAGCCGAAGAAGGCUAUUAGAAGGUUGCAAAA [Isesinbe]', 'middle group'),
  ('AAAAUAAAAUAAAAGGAUAUAAAAUAAAAUACAUGAGGAUCACCCAUGUAUAAAAUAAAAAAAUAAAAGAAGGAAUAAAAAUAAA [SS2 504: MS2 4]', 'low group'),
  ('AAUAUACAUGAGGAUCACCCAUGUUAGGUGGGACUAGGAUAUCAGAGUACAUAAUGAACAUGAGAAGGAGUAUCAA [JR_SS001_Sub404]', 'high group'),
  ('AUAAAACAUGAGGAUCACCCAUGUCCGACAAAUCAAGGAUAUGAGAGCCUAACCAGGCUGUUAGAAGGUGAAAGAU [Riteat]', 'high group'),
  ('UACAGACAUGAGGAUCACCCAUGUAGAAUUAUGGGAGGAUAUACAAAGACGAGAGUCAGAGUAGAAGGCCUAGGAU [salish99-ss1-164]', 'middle group'),
  ('AUAAUAAUAAGGUAGGAUAUGCUAAAGUAAACAUGAGGAUCACCCAUGUAAAGAAAAAAACUCAUGUAGAAGGGCCAGAAAUAAA [moonwalk 4]', 'high group'),
  ('GGGAGGAAGAGAGAGGAUAUCCAAAGGAAAACAUGAGGAUCACCCAUGUAAAAGGUAGGAAAUUGGGAGAAGGCUCAAGAGAAGG [salish99-ss2-050]', 'low group'),
  ('CAUCAUGCGCCUAAGGAUAUGUCUCACAAGACAUGAGGAUCACCCAUGUAGAAUAAAUAAACGAUGCAGAAGGUGGAGUGCAUGC [Vetimaor]', 'high group'),
  ('AAAAAAUAAAAAAAGGAUAUAAAUGCUAGAACAUGAGGAUCACCCAUGUACUAGCAAAAAAUAAAAAAGAAGGAAAAAUAAAAAA [SS2: MS2 18]', 'low group'),
  ('UAACUACAUGAGGAUCACCCAUGUCAAAUAAAUCGAGGAUAUGGGACGCAAAACGUCUGACCAGAAGGCGAAACAA [Maquriceri]', 'middle group'),
  ('AAACCACAUGAGGAUCACCCAUGUGAAAUACACAUAGGAUAUGCGAAAAGAAACAAAGAAGCAGAAGGGUGAAAAA [75%, Ex sub1, 17]', 'middle group'),
  ('AAAAGACAUGAGGAUCACCCAUGUAAAAACGUAGGAGGAUAUGUCUGGAAAACAUGCUGGACAGAAGGCCUGUGUC [SS1 - 29]', 'low group');
